- System: Staphylococcus aureus
- assay.comment: Antibacterial activity against methicillin-resistant Staphylococcus aureus clinical isolate MRSA-22 measured after 16 to 18 hrs by CLSI method
- Format: functional
- stated.conditions: time 16-18 hrs
endpoint.label: MIC (µg/mL)
Kindly answer with a numeric value in µg/mL, unit omitted.

Before answering, review these 2 worked examples.
COc1cc(OCCCN2CCCC(C)C2)c(CC=C(C)C)c2c1C(=O)CC(c1ccc(OCCCN3CCCC(C)C3)cc1)O2 (stereo not drawn): 16
CCCN(CCC)CCCCOc1ccc(C2CC(=O)c3c(OC)cc(OCCCCN(CCC)CCC)c(CC=C(C)C)c3O2)cc1 (stereo not drawn): 16

input: # return recorded MIC for entry COc1cc(O)c(CC=C(C)C)c2c1C(=O)CC(c1ccc(O)cc1)O2 (stereo not drawn)
output: 64

input: # return recorded MIC for entry CCCN(CCC)CCCCCOc1ccc(C2CC(=O)c3c(OC)cc(OCCCCCN(CCC)CCC)c(CC=C(C)C)c3O2)cc1 (stereo not drawn)
output: 8

input: # return recorded MIC for entry COc1cc(OCCCN2CCCCC2C)c(CC=C(C)C)c2c1C(=O)CC(c1ccc(OCCCN3CCCCC3C)cc1)O2 (stereo not drawn)
output: 16
